# tgt: UniProt:P08253
# procedure summary: Inhibition of recombinant MMP-2 (unknown origin)
parameter measured: IC50 (nM)
The figure you give is taken to be in nM; do not add the unit.

Item "COc1ccc(S(=O)(=O)N(CC(=O)NO)CC(C)C)cc1" : provide IC50
70

###

Here's a batch of compounds along with measured IC50 for Stromelysin-2 (Homo sapiens).
The figure you give is taken to be in nM; do not add the unit.

Please report IC50 with Stromelysin-2 (Homo sapiens) for item "COc1ccc(/C=N/Nc2nc(C)cc(=O)[nH]2)cc1" .
Sequence (P09238 whole entry): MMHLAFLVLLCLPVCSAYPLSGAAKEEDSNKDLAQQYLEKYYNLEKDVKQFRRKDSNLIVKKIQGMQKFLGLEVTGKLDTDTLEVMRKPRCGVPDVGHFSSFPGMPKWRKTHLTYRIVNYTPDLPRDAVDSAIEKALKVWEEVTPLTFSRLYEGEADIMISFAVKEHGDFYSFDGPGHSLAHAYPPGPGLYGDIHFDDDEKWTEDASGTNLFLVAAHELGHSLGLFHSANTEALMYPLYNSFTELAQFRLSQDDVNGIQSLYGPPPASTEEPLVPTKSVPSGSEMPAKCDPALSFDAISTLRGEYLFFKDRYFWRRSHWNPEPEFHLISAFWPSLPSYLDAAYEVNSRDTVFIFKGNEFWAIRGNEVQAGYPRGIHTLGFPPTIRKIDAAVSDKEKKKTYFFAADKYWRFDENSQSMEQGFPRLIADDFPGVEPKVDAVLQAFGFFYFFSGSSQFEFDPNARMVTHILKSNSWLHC
53

Moving on to another compound below.
Please report IC50 with Stromelysin-2 (Homo sapiens) for item CC(=O)N1c2nc(=O)cc(C)n2C(c2ccc(Br)cc2)N1C(C)=O (configuration not stated) .
1630

###

Reported pIC50 values for a set of compounds
# tgt: 72 kDa type IV collagenase (Homo sapiens, UniProt P08253)
# Sequence (P08253 whole entry): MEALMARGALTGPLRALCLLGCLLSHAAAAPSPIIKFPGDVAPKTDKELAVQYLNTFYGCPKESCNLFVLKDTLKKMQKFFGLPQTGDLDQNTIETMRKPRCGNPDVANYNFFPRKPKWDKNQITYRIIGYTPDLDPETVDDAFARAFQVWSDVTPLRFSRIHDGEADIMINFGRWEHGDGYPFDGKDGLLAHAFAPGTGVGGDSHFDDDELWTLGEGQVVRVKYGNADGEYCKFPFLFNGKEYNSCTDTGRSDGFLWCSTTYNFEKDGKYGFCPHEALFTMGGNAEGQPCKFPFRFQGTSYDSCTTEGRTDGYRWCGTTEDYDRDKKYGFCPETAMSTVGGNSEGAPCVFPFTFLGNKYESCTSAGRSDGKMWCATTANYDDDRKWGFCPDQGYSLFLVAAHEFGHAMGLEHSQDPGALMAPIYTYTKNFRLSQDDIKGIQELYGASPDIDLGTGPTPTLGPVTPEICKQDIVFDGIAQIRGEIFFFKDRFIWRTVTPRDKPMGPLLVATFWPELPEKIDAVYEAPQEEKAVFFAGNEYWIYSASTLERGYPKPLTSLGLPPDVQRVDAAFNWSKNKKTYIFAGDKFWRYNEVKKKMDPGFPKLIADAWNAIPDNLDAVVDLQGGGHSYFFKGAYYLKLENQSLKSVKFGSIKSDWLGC
# procedure summary: Inhibition of human MMP-2 using 7-methoxycoumarin-4-yl)acetyl-Pro-Leu-Gly-Leu-(N3-(2,4-dinitrophenyl)-L-2,3-diaminopropionyl)-Ala-Arg-NH2 as substrate preincubated for 5 mins followed by enzyme addition and measured after 15 mins by fluorescence based analysis
Units for pIC50: none; it is -log10 of a concentration expressed in mol/L.

Item "C[C@H](C[C@H](CO)NC(=O)c1ccc(Oc2ccccc2)cc1)C(=O)NO" : provide pIC50
9.19

Item "C[C@H](C[C@H](COC(=O)CCC(=O)O)NC(=O)c1ccc(Oc2ccccc2)cc1)C(=O)NO" : provide pIC50
8.96

###

# procedure summary: Cytotoxicity against human CCD-986Sk cells assessed as cell viability by MTT assay relative to control
# Assay type: toxicity, cell-based
# condition label: read-out: Activity
parameter measured: viability

Item COc1cc(/C=C/C(=O)O)ccc1O [FERULATE] : provide viability
> 80%
